Data provenance is PubChem BioAssay (NCI).

- Tested on: SNB-75 CNS
- experiment.summary: NCI-60 one-dose screen, 48 h
- condition.summary: 10 µM unless noted
- Protocol: Growth inhibition of the SNB-75 human tumor cell line is measured as a screen for anti-cancer activity. Cells are grown in 96 well plates and exposed to the test compound for 48 hours. Compounds are tested at a single concentration, which is 10^-5 M for most compounds. The reported endpoint is percent growth (GI% or GIPRCNT), where numbers from 0 - 100% represent growth inhibition, and numbers from -100% - 0 represent cell death. For example, a value of 40 represents 60% growth inhibition. […]
Compounds without any hit were thinned out: in the full panel of roughly 83,000, 20% have a hit. Active and inactive are the calls of the source. The calls were made as follows: active = growth percent below 10; inactive = the rest.
Possible outcomes: T (active), F (inactive)

{"columns": ["compound", "label.class"],
 "data": [
  ["O=C(O)c1c(=O)cccc2ssc12", "F"],
  ["O=C(N(c1ccccc1)c1ccccc1)n1ccc2nc(Cl)nc(Cl)c21", "F"],
  ["CCN(CC)c1ccc(-c2cc(-c3cc(OC)c(OC)c(OC)c3)nc(N3CCOCC3)c2C#N)cc1", "F"],
  ["CCCCC/C(C=C(C#N)C#N)=C/c1ccccc1", "F"],
  ["C=C(C)[C@@H]1CC[C@]2(C(N)=O)CC[C@]3(C)[C@H](CC[C@@H]4[C@@]5(C)C/C(=C/c6ccco6)C(=O)C(C)(C)[C@@H]5CC[C@]43C)[C@@H]12", "F"],
  ["O=C(COc1ccc(/C=C2\\CSc3ccccc3C2=O)cc1)Nc1nccs1", "F"],
  ["COc1cc2c(cc1-c1c(C)noc1C)ncc1nc(C3CCOCC3)n([C@@H](C)COC(F)F)c12", "F"],
  ["CC(=O)c1cc2c(N)c(C(=O)Nc3cccc4ccccc34)sc2nc1C", "F"],
  ["COc1cccc(-c2nc(SCC(=O)Nc3ccc(C(=O)/C=C/c4ccc(OC)c(OC)c4)cc3)[nH]c(=O)c2C#N)c1", "F"],
  ["Nc1n[nH]c2ccc([C@@H]3Nc4ccc5cn[nH]c5c4[C@H]4C5CCC(C5)[C@@H]34)cc12 (stereo partly specified)", "T"],
  ["CCCCC[C@H]1C/C=C2/C(=O)C=C[C@@H]2C/C=C\\CCCC(=O)O1", "T"],
  ["Cc1ccc2c(c1)C(=O)/C(=C/c1cccc(OCC(=O)c3ccc(Cl)cc3)c1)CS2", "F"],
  ["CNC(=O)c1cc(Oc2ccc(NC(=O)Nc3ccc(Cl)c(SC)c3)c(F)c2)ccn1", "F"],
  ["Cc1[nH]c(-c2cc(N)ccc2Cl)c2c1C(=O)CCCC2", "T"],
  ["CN(C)CCCNc1c2ccccc2nc2ccccc12", "F"],
  ["O=C(CN1CCCCC1)Nc1ccc2oc(=O)ccc2c1", "F"],
  ["COc1ccc(C2Nc3c(c(C(C)(C)C)nn3-c3ccccc3)C(=O)CS2)cc1 (stereo unspecified)", "F"],
  ["O=C(N/N=C/c1c[nH]c2ccccc12)c1cc(-c2ccccc2)on1", "F"],
  ["C=C1C(=O)O[C@H]2[C@H]1CC/C(COC(=O)c1cc3cc(OC)ccc3[nH]1)=C\\CC[C@@]1(C)O[C@@H]21", "T"],
  ["O=C(N/N=C/c1ccccc1O)c1ccccc1Nc1ccnc(C(F)(F)F)c1", "F"],
  ["CC(=O)Nc1ccc(S(=O)(=O)Nc2cccc(-c3nc(-c4ccc(NC(=O)c5cccnc5)cc4Cl)no3)c2)cc1", "F"],
  ["COc1ccc(Nc2c3c4c(cccc4[nH]c2=O)C(=O)c2ccccc2-3)cc1", "T"],
  ["COc1ccc(-c2nc3ccc(-c4nc5ccc(N6CCN(C)CC6)cc5[nH]4)cc3[nH]2)cc1OC", "F"],
  ["COC(=O)[C@@H]1CCCN1C(=O)[C@@H]1CCCN1C(=O)[C@H](Cc1ccccc1)NC(=S)Nc1cc(C(F)(F)F)cc(C(F)(F)F)c1", "F"],
  ["N#C/C(=C\\c1ccc(-c2ccc(Cl)c(Cl)c2)o1)c1nc(-c2ccco2)cs1", "F"],
  ["CN1CCN(CCCOc2cccc3nc(Nc4cc(Cl)cc(Cl)c4)ccc23)CC1", "F"],
  ["Clc1ccc2c(NCCCCNc3nc(N4CCCCC4)nc4ccccc34)ccnc2c1", "T"],
  ["CCN(CC)c1ccc2c(c1)Oc1nc(N)c(C#N)c(N)c1C2Sc1ccc(SC)cc1 (stereo unspecified)", "T"],
  ["COc1cccc(-c2nc3sccn3c2-c2ccnc(NCCCNS(=O)(=O)c3cccc(F)c3)c2)c1", "F"],
  ["FC(F)(F)c1[nH]ncc1-c1nc2ccc3n[nH]c(C#Cc4cccnc4)c3c2c2c1CCCC2", "T"],
  ["O=C(NCCN1CCOCC1)Nc1ccc(-c2cc3c(Nc4ccc(Oc5cccc(C(F)(F)F)c5)c(Cl)c4)ncnc3s2)cc1", "T"]
]}

----------
- System: SF-539 CNS
- experiment.summary: NCI-60 one-dose screen, 48 h
- condition.summary: 10 µM unless noted
About 83,000 compounds went through this panel and 20% of them were active in at least one assay; those are over-represented in the sample as a whole. Active and inactive are the calls of the source. Rule for the calls: active = growth percent below 10; inactive = the rest.
Possible outcomes: active, inactive

{"columns": ["entry.smiles", "system.name", "label.class"],
 "data": [
  ["COc1ccc(C(=O)COc2ccc(/C=C3\\COc4ccc(OC)cc4C3=O)cc2)cc1", "SF-539 CNS", "inactive"],
  ["COc1ccc(CN2c3ccccc3Sc3ccccc32)c(C(F)(F)F)c1", "SF-539 CNS", "active"],
  ["Cc1[nH]c(-c2ccc3cc[nH]c3c2)c2c1C(=O)CCCC2", "SF-539 CNS", "inactive"],
  ["COc1cc(-c2nc3ccccc3[nH]2)ccc1OCc1nnc(-c2ccc(CC(C)C)cc2)o1", "SF-539 CNS", "inactive"],
  ["COc1cc2nnc3c4cccnc4[nH]c3c2cc1OC", "SF-539 CNS", "inactive"]
]}

----------
- Tested on: HT29 colon
- experiment.summary: NCI-60 one-dose screen, 48 h
- condition.summary: 10 µM unless noted
- Method: Growth inhibition of the HT29 human tumor cell line is measured as a screen for anti-cancer activity. Cells are grown in 96 well plates and exposed to the test compound for 48 hours. Compounds are tested at a single concentration, which is 10^-5 M for most compounds. The reported endpoint is percent growth (GI% or GIPRCNT), where numbers from 0 - 100% represent growth inhibition, and numbers from -100% - 0 represent cell death. For example, a value of 40 represents 60% growth inhibition. […]
The panel holds about 83,000 compounds, 20% with a hit somewhere; the sample as a whole holds those more often. Calls of active or inactive are those of the source. The calls were made as follows: active = growth percent below 10; inactive = the rest.
Outcome codes: active, inactive

{"columns": ["compound", "label.class"],
 "data": [
  ["CN1CCN(Cc2ccc(NC(=O)c3cncc(C#Cc4cncn5ccnc45)c3)cc2C(F)(F)F)CC1", "inactive"],
  ["CC[C@H]1OC(=O)[C@H](C)[C@@H](O[C@H]2C[C@@](C)(OC)[C@@H](O)[C@H](C)O2)[C@H](C)[C@@H](O[C@@H]2O[C@H](C)C[C@H](N(C)C)[C@H]2O)[C@](C)(O)C[C@H](C)CN(C)[C@H](C)[C@@H](O)[C@]1(C)O", "inactive"],
  ["COc1cc(C)c(C2C(C#N)=C(N)Oc3n[nH]c(-c4cccs4)c32)cc1C(C)C (stereo not drawn)", "inactive"],
  ["COc1ccc(CCNc2nc3c(c(=O)n(Cc4ccc(Br)cc4)c(=O)n3C)n2C)cc1OC", "inactive"],
  ["CC(O)CN1CC(O)=C(c2nc3ccccc3s2)C1=N (stereo not drawn)", "inactive"],
  ["C#CC(F)(F)[C@]1(O)CC[C@H]2[C@@H]3CCC4=CC(=O)CCC4=C3[C@@H](c3ccc(C(C)=O)cc3)C[C@@]21C", "active"],
  ["O=C1NC(=Nc2ccc(O)cc2)S/C1=C\\c1cccc(Cl)c1", "inactive"],
  ["NC(=O)c1cc(I)ccc1NC(=O)/C=C/c1ccccc1Cl", "active"]
]}

----------
- Tested on: RPMI-8226 leukemia
- experiment.summary: NCI-60 one-dose screen, 48 h
- condition.summary: 10 µM unless noted
Compounds without any hit were thinned out: in the full panel of roughly 83,000, 20% have a hit. The source made the active and inactive calls. How the source made its calls: active means growth percent below 10; inactive means the rest.
Possible outcomes: 1 = active, -1 = inactive

{"columns": ["compound", "label.class"],
 "data": [
  ["COc1cc2c(cc1-c1c(C)noc1C)ncc1nc(C3CCCCC3)n([C@H](C)COC(F)F)c12", -1],
  ["O=C(O)c1ccc(N=CC(=O)c2ccc(-c3ccccc3)cc2)cc1", -1],
  ["COc1cc2c(cc1O)CC[C@@H]1[C@@H]2CC[C@]2(C)[C@@H](OCCN(C)C)CC[C@@H]12", 1],
  ["CC(=O)Nc1ccc(S(=O)(=O)Nc2cccc(-c3nc(-c4ccc(NC(=O)c5cccnc5)cc4Cl)no3)c2)cc1", -1],
  ["COc1ccc(S(=O)(=O)N2CCN(C)CC2)cc1NC(=O)c1[nH]c(C)c2c1CCCCC2=O", -1],
  ["O=S(=O)(Nc1ccc(NS(=O)(=O)c2ccccc2)c(Cl)c1)c1ccccc1", -1],
  ["CN(C)S(=O)(=O)c1ccc(S(=O)(=O)Nc2cccc(Cl)c2N2CCCCC2)cc1", -1],
  ["C=C1C(=O)O[C@H]2[C@H]1CC/C(COC(=O)c1cc3cc(OC)ccc3[nH]1)=C\\CC[C@@]1(C)O[C@@H]21", 1],
  ["O=C1/C(=C/C(Cl)=C/c2ccccc2)SC(=S)N1CCc1ccc(O)cc1", 1],
  ["Cc1c(/C=C/[N+](=O)[O-])ccc2c1[nH]c1ccccc12", 1],
  ["C=CC(=O)Nc1cccc(Nc2nc(SC)nc(-c3cccc([N+](=O)[O-])c3)c2C#N)c1", -1],
  ["CCOC(=O)n1cc(-c2nonc2-c2cn(C)c3ncccc23)c2cc(F)ccc21", -1],
  ["COc1ccc2[nH]cc(-c3noc(C(=O)c4cn(C)c5ccc(F)cc45)n3)c2c1", -1],
  ["COc1ccc(Nc2nc(SC)nc(-c3cccc([N+](=O)[O-])c3)c2C#N)cc1", -1],
  ["COc1cc(-c2nn(-c3ccc(Br)cc3)cc2C(=O)O)ccc1O", -1],
  ["O=C1Nc2c(ccc(Cl)c2Cl)/C1=C\\c1cc(C(F)(F)F)cc(C(F)(F)F)c1", -1],
  ["Cn1cccc1-c1nc2c3c(ccc2[nH]1)C(=O)c1ccccc1C3=O", -1],
  ["Cc1cc(N2CCN(c3ccnc4cc(Cl)ccc34)CC2)nc(NC2CCCCC2)n1", 1],
  ["COc1cc2c(cc1-c1c(C)noc1C)ncc1nc(C3CCCC3)n([C@H](C)COC(F)F)c12", -1],
  ["COC(=O)c1ccc(Cn2cnc3c(N)ncnc32)cc1", -1],
  ["Clc1ccc2c(NCCCCNc3nc(N4CCCCC4)nc4ccccc34)ccnc2c1", 1],
  ["COc1ccc(-c2cc(Nc3ccnc(N4CCOCC4)n3)on2)cc1", -1],
  ["CC(=O)OC[C@H]1O[C@H](OC(C)=O)[C@H](NC(=O)/C=C/CCl)[C@@H](OC(C)=O)[C@@H]1OC(C)=O", -1],
  ["COc1cccc(-c2nc(SCC(=O)Nc3ccc(C(=O)/C=C/c4ccc(OC)c(OC)c4)cc3)[nH]c(=O)c2C#N)c1", -1],
  ["N#Cc1c(-c2ccc(Cl)cc2)nc(N/N=C/c2cccc(Br)c2)nc1N1CCOCC1", -1],
  ["C#CCOc1ccc2ncnc(Nc3cccc(CNC(=O)C=C)c3)c2c1", -1],
  ["CCOc1cc2ncc(C#N)c(Nc3ccc(OCc4cccc(F)c4)c(Cl)c3)c2cc1NC(=O)CC1CCSS1 (centres undefined)", -1],
  ["Cn1c(O)c(N=NC(=O)c2cc(-c3ccccc3)on2)c2ccccc21", -1],
  ["COc1ccc(S(=O)(=O)N2CCCCC2)cc1NC(=O)c1[nH]c(C)c2c1CCCCC2=O", -1]
]}
